TARGET OF ASSAY: rat homomeric P2X3 receptors (Rattus norvegicus)
Construct: transfected with rat or human full-length P2X3 cDNA subcloned into pIRES2-EGFP; expressed in transfected cells; host or cells: HEK293T (HEK293 in the results)
Sequence (P49654 whole entry): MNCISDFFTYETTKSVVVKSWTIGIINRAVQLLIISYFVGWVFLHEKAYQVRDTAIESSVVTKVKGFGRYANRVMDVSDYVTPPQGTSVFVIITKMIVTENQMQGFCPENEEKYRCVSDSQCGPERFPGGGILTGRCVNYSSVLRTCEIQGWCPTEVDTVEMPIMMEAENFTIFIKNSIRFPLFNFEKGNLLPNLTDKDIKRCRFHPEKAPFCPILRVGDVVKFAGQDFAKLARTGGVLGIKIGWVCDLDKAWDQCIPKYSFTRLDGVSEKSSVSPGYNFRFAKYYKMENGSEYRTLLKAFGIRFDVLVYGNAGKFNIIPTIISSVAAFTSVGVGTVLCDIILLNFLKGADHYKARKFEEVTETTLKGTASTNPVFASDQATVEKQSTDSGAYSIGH
TEST SUMMARY: Whole-cell patch clamp on HEK293 cells expressing rat homomeric P2X3R (activation and HAD inhibition of α,β-meATP test pulses)
Type: cell-based
CONDITION INFO: EC50 of partial agonist P2X3R activation, HEK293 rat P2X3R
Protocol: Rat trigeminal, nodose, or dorsal root ganglion (TG, NG, and DRG, respectivley) neurons in culture were prepared as described previously.[46],[47] […] TG, NG, DRG, or HEK cells were recorded in the whole-cell configuration while being continuously superfused (at 2 ml/min) with control solution containing (in mM): 152 NaCl, 5 KCl, 1 MgCl2, 2 CaCl2, 10 glucose, and 10 HEPES; pH was adjusted to 7.4 with NaOH and osmolarity was adjusted to 320 mOsM with glucose. […]
EXPERIMENTAL READOUT: EC50 (µM)
Note: unit µM is implicit; provide only the numeric part.

Check the records and state EC50 for Nc1ncnc2c1ncn2[C@@H]1O[C@H](COP(=O)(O)OP(=O)(O)NP(=O)(O)OP(=O)(O)OC[C@H]2O[C@@H](n3cnc4c(N)ncnc43)[C@H](O)[C@@H]2O)[C@@H](O)[C@H]1O [AppNHppA]
41.6

---

System: formalin-induced nociceptive behavior
TEST SUMMARY: Formalin test (spontaneous jerking of the injected hindpaw)
Type: in vivo, rat
CONDITION INFO: locally administered concentration, coinjection with formalin; tonic phase 7–45 min; read-out: IC50 in the tonic phase of formalin test
Protocol: All animal experiments were carried out in accordance with the “Guide for the Care and Use of Laboratory Animals” as adopted by the Bogomoletz Institute of Physiology Clinic of Animal Care and Use. […] Immediately after the injection, each animal was returned to the observation chamber and its behavioral characteristics were recorded for 45 min. […] The number of jerks was measured for each 1-min block, using self-developed computer software. […]
EXPERIMENTAL READOUT: IC50 (nM)
Give the value, in units of nM, as a plain number.

Report measured IC50; entry is Nc1ncnc2c1ncn2[C@@H]1O[C@H](COP(=O)(O)OP(=O)(O)CP(=O)(O)OP(=O)(O)OC[C@H]2O[C@@H](n3cnc4c(N)ncnc43)C(O)C2O)C(O)C1O (stereo partly shown) [AppCH2ppA]
290

---

TARGET OF ASSAY: rat homomeric P2X3 receptors (Rattus norvegicus)
Construct: transfected with rat or human full-length P2X3 cDNA subcloned into pIRES2-EGFP; expressed in transfected cells; host or cells: HEK293T (HEK293 in the results)
TEST SUMMARY: Whole-cell patch clamp on HEK293 cells expressing rat homomeric P2X3R (activation and HAD inhibition of α,β-meATP test pulses)
Assay type: cell-based
CONDITION INFO: EC50 of activation (summary restatement), rat P2X3R, summary statement
EXPERIMENTAL READOUT: EC50 (µM)
Lab book: enter the figure in µM, no units written.

Give the measured EC50 for Nc1ncnc2c1ncn2[C@@H]1O[C@H](COP(=O)(O)OP(=O)(O)NP(=O)(O)OP(=O)(O)OC[C@H]2O[C@@H](n3cnc4c(N)ncnc43)[C@H](O)[C@@H]2O)[C@@H](O)[C@H]1O [AppNHppA]
41
